Would you mind telling me the reported EC50 of each entry?
# TARGET DESC: muscarinic M1 receptor (Homo sapiens, UniProt P11229)
# Construct: expressed in transfected cells
# METHOD: R-SAT functional screen, M1
# Type: cell-based
# CONDITION LABEL: R-SAT; read-out: M1 pEC50 (converted)
Numbers only, in nM.

> print(dat)
                                   compound                               target.desc  quantity  observed
1       Cc1ccc2c(c1)N=C(N1CCNCC1)c1ccccc1N2  muscarinic M1 receptor (Homo sapiens, UniProt P11229)      EC50       158
2  CC1CN(C2=Nc3cc(Cl)ccc3Nc3ccccc32)CCN1 (stereo not drawn)  muscarinic M1 receptor (Homo sapiens, UniProt P11229)      EC50       100
3  Brc1ccc2c(c1)N=C(N1CCNCC1)C1CCCC1N2 (stereo not drawn)  muscarinic M1 receptor (Homo sapiens, UniProt P11229)      EC50      1580
4      Clc1ccc2c(c1)N=C(C1CCNCC1)c1ccccc1N2  muscarinic M1 receptor (Homo sapiens, UniProt P11229)      EC50       631
5      Clc1ccc2c(c1)N=C(N1CCNCC1)c1ccccc1O2  muscarinic M1 receptor (Homo sapiens, UniProt P11229)      EC50       100
6  Clc1ccc2c(c1)N=C(N1CCNCC1)c1ccc(Cl)cc1N2  muscarinic M1 receptor (Homo sapiens, UniProt P11229)      EC50       126

Batch of 8 compounds: report EC50 for each.
1. Clc1ccc2c(c1)Nc1ccc(Br)cc1N=C2N1CCNCC1
2. Brc1ccc2c(c1)N=C(N1CCNCC1)CCN2
3. Cc1cccc2c1Nc1ccc(Cl)cc1N=C2N1CCNCC1
4. Clc1cccc2c1C(N1CCNCC1)=Nc1cc(Br)ccc1N2
5. Fc1ccc2c(c1)N=C(N1CCNCC1)c1ccccc1N2
6. Clc1ccc2c(c1)Nc1ccccc1C(N1CCNCC1)=N2
7. c1ccc2c(c1)N=C(N1CCNCC1)c1ccccc1N2
8. CN1c2ccc(Br)cc2N=C(N2CCNCC2)c2ccccc21

[251, 2510, 63.1, 126, 200, 251, 794, 398]

----------
# Test system: hyperactivity induced by amphetamine
# METHOD: Amphetamine induced hyperactivity mouse model
# Type: in vivo
# CONDITION LABEL: mice, sc, salts of the compounds
# Experimental: Five of the compounds listed in Table 2 were tested in an in vivo assay predictive of antipsychotic activity. Salts of these compounds where administered to mice having hyperactivity induced by amphetamine or MK-801 administration. The compounds were administered both subcutaneously (sc) and orally (po).
QUANTITY: Amphetamine model (ID50 mg/kg sc) (mg/kg)
Numbers only, in mg/kg.

> print(dat)
                             molecule                           target.desc                           quantity  output.unit  observed
1  Cc1cccc2c1Oc1ccc(F)cc1N=C2N1CCNCC1  hyperactivity induced by amphetamine  Amphetamine model (ID50 mg/kg sc)        mg/kg       3.3

Would you mind listing Amphetamine model (ID50 mg/kg sc) for each of the following molecules?
1. Clc1ccc2c(c1)N=C(N1CCNCC1)c1ccccc1N2 [N-desmethylclozapine, reference compound]
2. CN1c2ccc(Cl)cc2N=C(N2CCNCC2)c2ccccc21
3. CN1CCN(C2=Nc3cc(Cl)ccc3Nc3ccccc32)CC1 [Clozapine, clozapine, reference compound]
4. Clc1ccc2c(c1)N=C(N1CCNCC1)c1ccccc1C2
5. Cc1cccc2c1Oc1ccc(Cl)cc1N=C2N1CCNCC1

[5.2, 6.0, 1.4, 3.6, 3.4]

----------
# TARGET DESC: muscarinic M3 receptor (Homo sapiens, UniProt P20309)
# Construct: expressed in transfected cells
# Sequence (P20309 whole entry): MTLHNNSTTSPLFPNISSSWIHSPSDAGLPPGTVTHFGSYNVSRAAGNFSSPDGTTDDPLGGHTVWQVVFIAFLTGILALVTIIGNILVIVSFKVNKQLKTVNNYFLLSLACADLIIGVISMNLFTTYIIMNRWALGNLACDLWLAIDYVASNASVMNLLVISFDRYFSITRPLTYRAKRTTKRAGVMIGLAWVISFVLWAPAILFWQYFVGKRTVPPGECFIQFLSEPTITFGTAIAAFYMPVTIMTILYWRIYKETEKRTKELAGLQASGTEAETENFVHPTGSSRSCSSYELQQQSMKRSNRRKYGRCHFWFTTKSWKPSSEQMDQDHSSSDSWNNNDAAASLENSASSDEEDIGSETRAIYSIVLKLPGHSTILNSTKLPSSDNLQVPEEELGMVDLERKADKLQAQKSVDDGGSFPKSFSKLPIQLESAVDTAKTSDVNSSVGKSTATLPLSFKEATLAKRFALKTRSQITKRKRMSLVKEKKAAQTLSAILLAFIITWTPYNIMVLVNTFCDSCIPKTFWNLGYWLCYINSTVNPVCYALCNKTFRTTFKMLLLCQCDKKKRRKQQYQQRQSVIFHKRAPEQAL
# METHOD: R-SAT functional screen, M3
# Assay type: cell-based
QUANTITY: M3 eff (efficacy)
One number for each entry.

// solved cases for M3 eff (efficacy) follow
> print(dat)
                               compound           quantity  observed
1   Cc1cccc2c1Nc1ccc(Cl)cc1N=C2N1CCNCC1  M3 eff (efficacy)        16
2  Brc1ccc2c(c1)N=C(N1CCNCC1)c1ccccc1N2  M3 eff (efficacy)        13

# per-item lookup of M3 eff (efficacy); items listed below
1. CC1CN(C2=Nc3cc(Cl)ccc3Nc3ccccc32)CCN1 (stereo not drawn)
2. CN1c2ccc(Cl)cc2N=C(N2CCNCC2)c2ccccc21
3. Clc1cccc2c1C(N1CCNCC1)=Nc1cc(Br)ccc1N2
4. Clc1ccc2c(c1)N=C(N1CCNCC1)c1cccc(Cl)c1N2

[19, 14, 4, 44]

----------
# TARGET DESC: muscarinic M2 receptor (Homo sapiens, UniProt P08172)
# Construct: expressed in transfected cells
# Sequence (P08172 whole entry): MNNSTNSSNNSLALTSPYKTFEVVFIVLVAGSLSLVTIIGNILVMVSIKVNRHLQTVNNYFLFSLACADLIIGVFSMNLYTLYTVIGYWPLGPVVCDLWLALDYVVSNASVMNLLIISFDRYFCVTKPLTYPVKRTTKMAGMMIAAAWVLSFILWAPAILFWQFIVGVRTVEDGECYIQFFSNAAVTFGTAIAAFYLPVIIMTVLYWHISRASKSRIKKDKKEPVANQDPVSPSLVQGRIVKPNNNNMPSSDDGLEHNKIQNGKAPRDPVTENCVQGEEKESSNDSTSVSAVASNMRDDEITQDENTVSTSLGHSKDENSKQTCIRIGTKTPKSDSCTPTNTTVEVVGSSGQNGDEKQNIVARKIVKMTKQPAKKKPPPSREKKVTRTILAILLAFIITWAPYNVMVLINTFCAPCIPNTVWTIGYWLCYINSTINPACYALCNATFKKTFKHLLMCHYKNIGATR
# METHOD: R-SAT functional screen, M2
# Assay type: cell-based
# CONDITION LABEL: R-SAT; read-out: M2 pEC50 (converted)
Give EC50 for every item shown.
One number for each entry, in nM.

Example entries begin here.
> print(dat)
                                   molecule  quantity  observed
1        Cc1cccc2c1Oc1ccc(F)cc1N=C2N1CCNCC1      EC50      1580
2       Cc1ccc2c(c1)N=C(N1CCNCC1)c1ccccc1O2      EC50      3160
3        c1ccc2c(c1)N=C(N1CCNCC1)c1ccccc1N2      EC50      2510
4  FC(F)(F)c1ccc2c(c1)N=C(N1CCNCC1)c1ccccc1N2      EC50      3160

Could you tell me EC50 for each of these molecules? They are listed below.
1. CC1CN(C2=Nc3cc(Cl)ccc3Nc3ccccc32)CC(C)N1 (stereo not drawn)
2. Cc1cccc2c1Oc1ccc(Cl)cc1N=C2N1CCNCC1
3. CN1CCN(C2=Nc3cc(Cl)ccc3Oc3ccccc32)CC1
4. CN1c2ccc(Br)cc2N=C(N2CCNCC2)c2ccccc21
5. Ic1ccc2c(c1)N=C(N1CCNCC1)c1ccccc1N2

[2510, 631, 1580, 2510, 1000]

List EC50 for every entry below, keeping the order given.
1. COc1ccc2c(c1)Oc1ccc(C)cc1N=C2N1CCNCC1
2. COc1ccc2c(c1)Oc1cc(Cl)ccc1N=C2N1CCNCC1

3160
1000

Look at this molecule and give its reported EC50. Clc1ccc2c(c1)N=C(N1CCNCC1)c1cccc(Cl)c1N2
1000

----------
# TARGET DESC: UniProtKB P05177
# Sequence (P05177 whole entry): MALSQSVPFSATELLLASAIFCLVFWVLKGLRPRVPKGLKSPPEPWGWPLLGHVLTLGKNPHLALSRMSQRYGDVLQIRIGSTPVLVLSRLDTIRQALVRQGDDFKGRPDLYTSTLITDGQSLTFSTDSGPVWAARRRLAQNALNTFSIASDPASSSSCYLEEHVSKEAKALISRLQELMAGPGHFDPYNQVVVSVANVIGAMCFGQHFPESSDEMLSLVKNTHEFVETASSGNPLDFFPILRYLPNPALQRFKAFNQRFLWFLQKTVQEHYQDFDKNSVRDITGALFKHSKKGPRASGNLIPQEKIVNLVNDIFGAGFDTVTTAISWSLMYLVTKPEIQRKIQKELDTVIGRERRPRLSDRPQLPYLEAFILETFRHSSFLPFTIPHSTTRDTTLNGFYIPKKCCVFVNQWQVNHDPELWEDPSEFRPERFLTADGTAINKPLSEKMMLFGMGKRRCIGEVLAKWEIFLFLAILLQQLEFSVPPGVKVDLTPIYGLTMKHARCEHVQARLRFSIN
QUANTITY: IC50

Example entries begin here.
> print(dat)
                          smiles.record       target.desc  quantity  observed
1  Clc1ccc2c(c1)N=C(N1CCNCC1)c1ccccc1C2  UniProtKB P05177      IC50   > 10 µM
2    Cc1cccc2c1Oc1ccc(F)cc1N=C2N1CCNCC1  UniProtKB P05177      IC50      1 µM

Name the reported IC50 value associated with the molecule CN1c2ccc(Cl)cc2N=C(N2CCNCC2)c2ccccc21
> 10 µM

----------
# TARGET DESC: M1 receptor (Homo sapiens, UniProt P11229)
# Sequence (P11229 1-460): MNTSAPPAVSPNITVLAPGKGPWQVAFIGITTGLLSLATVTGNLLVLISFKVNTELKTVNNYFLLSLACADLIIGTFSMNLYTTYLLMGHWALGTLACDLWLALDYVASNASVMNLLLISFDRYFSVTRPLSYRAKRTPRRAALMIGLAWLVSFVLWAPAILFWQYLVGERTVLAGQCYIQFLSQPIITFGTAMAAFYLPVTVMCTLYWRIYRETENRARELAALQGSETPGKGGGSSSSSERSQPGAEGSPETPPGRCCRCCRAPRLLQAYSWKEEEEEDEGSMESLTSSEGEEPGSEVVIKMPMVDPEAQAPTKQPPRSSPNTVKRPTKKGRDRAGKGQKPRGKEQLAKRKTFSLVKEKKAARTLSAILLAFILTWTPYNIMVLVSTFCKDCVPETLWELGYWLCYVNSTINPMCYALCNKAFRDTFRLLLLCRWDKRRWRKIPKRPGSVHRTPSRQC
# METHOD: Receptor profile, M1 agonist activity
QUANTITY: EC50 (nM)
Give bare numbers, in nM.

> print(dat)
                         smiles.record  observed
1  Cc1cccc2c1Oc1ccc(Cl)cc1N=C2N1CCNCC1       200

Parameters: items (list). Returns: EC50 for each item.
1. Clc1ccc2c(c1)N=C(N1CCNCC1)c1ccccc1C2
2. Cc1cccc2c1Oc1ccc(F)cc1N=C2N1CCNCC1
3. Cc1cccc2c1Oc1ccc(C(F)(F)F)cc1N=C2N1CCNCC1

1: 100; 2: 126; 3: 316

I'm hoping you can list EC50 for every compound here, please.
1. CN1c2ccc(Cl)cc2N=C(N2CCNCC2)c2ccccc21
2. Fc1ccc2c(c1)N=C(N1CCNCC1)c1ccccc1O2
3. Brc1ccc2c(c1)N=C(N1CCNCC1)c1ccccc1O2

79.4
316
398
